// compounds with reported pIC50 on Dihydroorotate dehydrogenase (quinone), mitochondrial (Homo sapiens, UniProt Q02127), multi-publication
Sequence (Q02127 whole entry): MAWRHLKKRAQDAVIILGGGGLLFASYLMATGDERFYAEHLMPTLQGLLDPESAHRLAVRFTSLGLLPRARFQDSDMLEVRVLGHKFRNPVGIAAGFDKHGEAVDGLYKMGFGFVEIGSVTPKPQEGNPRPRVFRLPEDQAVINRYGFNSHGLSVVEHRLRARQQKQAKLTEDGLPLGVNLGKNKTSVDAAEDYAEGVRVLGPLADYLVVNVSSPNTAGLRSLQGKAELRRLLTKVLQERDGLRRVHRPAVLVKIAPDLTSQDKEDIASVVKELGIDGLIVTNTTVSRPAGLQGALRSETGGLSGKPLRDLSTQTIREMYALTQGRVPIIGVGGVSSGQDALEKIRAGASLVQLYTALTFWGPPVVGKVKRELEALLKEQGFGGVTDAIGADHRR
Numbers only, as −log10 of the molar value.

[[record]]
compound = "CCOc1nn(-c2ncc(CC)cn2)c(C)c1Oc1ccccc1Br"
experimental_target = "Dihydroorotate dehydrogenase (quinone), mitochondrial (Homo sapiens, UniProt Q02127)"
reported = 6.90

[[record]]
compound = "C/C(O)=C(\\C#N)C(=O)Nc1cc(O[C@@H](C)C(F)(F)F)c(C(=O)c2ccccc2)cc1F"
experimental_target = "Dihydroorotate dehydrogenase (quinone), mitochondrial (Homo sapiens, UniProt Q02127)"
reported = 7.54

[[record]]
compound = "CCc1cccc(NC(=O)/C=C/c2ccc(Cl)c(Cl)c2)c1"
experimental_target = "Dihydroorotate dehydrogenase (quinone), mitochondrial (Homo sapiens, UniProt Q02127)"
reported = 6.26

[[record]]
compound = "COc1cc(-c2cc(C(=O)O)c3ccccc3n2)ccc1OCC(=O)NCc1ccccc1"
experimental_target = "Dihydroorotate dehydrogenase (quinone), mitochondrial (Homo sapiens, UniProt Q02127)"
reported = 5.43

[[record]]
compound = "CCC(C)Oc1cc(NC(=O)/C(C#N)=C(/C)O)c(F)cc1-c1ccc(Cl)cc1 (stereo unspecified)"
experimental_target = "Dihydroorotate dehydrogenase (quinone), mitochondrial (Homo sapiens, UniProt Q02127)"
reported = 7.48

[[record]]
compound = "Cc1cc(O)n2nc(SCc3c(Cl)cccc3Cl)nc2n1"
experimental_target = "Dihydroorotate dehydrogenase (quinone), mitochondrial (Homo sapiens, UniProt Q02127)"
reported = 4.74

[[record]]
compound = "C/C(O)=C(\\C#N)C(=O)Nc1cc(O[C@@H](C)C(F)(F)F)c(C(=O)c2ccc(F)cc2)cc1F"
experimental_target = "Dihydroorotate dehydrogenase (quinone), mitochondrial (Homo sapiens, UniProt Q02127)"
reported = 7.14

[[record]]
compound = "C/C(O)=C(\\C#N)C(=O)Nc1cc(O[C@@H](C)C(F)(F)F)c(C(=O)Nc2c(F)cccc2Br)cc1F"
experimental_target = "Dihydroorotate dehydrogenase (quinone), mitochondrial (Homo sapiens, UniProt Q02127)"
reported = 8.17


Okay, next one:
Tested system Dihydroorotate dehydrogenase (quinone), mitochondrial (Homo sapiens, UniProt Q02127); pIC50 recorded for Cc1c(-c2ccc(-c3ccccc3F)cc2)nc2ccc(F)cc2c1C(=O)N(C)O was 8.11

* * *

pIC50: −log10 of the molar value.
Published pIC50 for Dihydroorotate dehydrogenase (quinone), mitochondrial (Homo sapiens, UniProt Q02127), assembled from different documents, is shown next.

Answered cases to consult:
[[record]]
molecule_smiles = "CCOC(=O)c1sc(Nc2ccc(Br)cc2C)nc1-c1ccccc1"
property = "pIC50"
reported = "< 5.00"

[[record]]
molecule_smiles = "CCOC(=O)c1sc(Nc2ccc(-c3cccc(OC)c3)cc2)nc1-c1ccccc1"
property = "pIC50"
reported = "< 5.00"

[[record]]
molecule_smiles = "N#Cc1c(-c2ccncc2)n[nH]c1Nc1ccc(C(F)(F)F)cc1"
property = "pIC50"
reported = "< 4.30"

[[record]]
molecule_smiles = "CN(C(=O)c1ccc(-c2ccccc2)cc1)c1ccccc1C(=O)O"
property = "pIC50"
reported = "< 3.70"


Please state pIC50 for every compound in the list that follows.
1. CC(=O)c1sc(Nc2ccccc2)nc1C
2. N#Cc1c(-c2ccco2)n[nH]c1Nc1ccc(C(F)(F)F)cc1

Given back:
["< 5.00", "< 4.30"]

* * *

// compounds with reported IC50 on Dihydroorotate dehydrogenase (quinone), mitochondrial (Homo sapiens, UniProt Q02127), multi-publication
Labels assigned by IC50 range: class A (below 30 nM), class B (30 nM to below 1000 nM), class C (1000 nM or more)

[[record]]
compound = "Cc1cc(N(C)c2ccc3ccccc3c2)n2ncnc2n1"
class_label = "class C"

[[record]]
compound = "Cc1cc(Nc2ccc3ccccc3c2)n2ncnc2n1"
class_label = "class C"

[[record]]
compound = "CC/C(O)=C(\\C#N)C(=O)Nc1ccc(-c2ccc(F)cc2OC)c(C(=O)OC)c1"
class_label = "class B"

[[record]]
compound = "CC/C(O)=C(\\C#N)C(=O)Nc1ccc(-c2ccc(F)c(F)c2)c(C(=O)OC)c1"
class_label = "class B"

[[record]]
compound = "CCCCNC(=O)c1ccc(-n2cnc3ccccc32)s1"
class_label = "class C"

[[record]]
compound = "CCn1c(CO)nn(-c2nc(OC(C)C(F)(F)F)c3c(Oc4c(F)cccc4Cl)nccc3c2F)c1=O (configuration not stated)"
class_label = "class A"

[[record]]
compound = "CC/C(O)=C(\\C#N)C(=O)Nc1ccc(-c2ccccc2)c(C(=O)OC)c1"
class_label = "class B"

[[record]]
compound = "CCn1c(CO)nn(-c2cc(OC(C)C(F)(F)F)c3c(Nc4c(F)cccc4Cl)nn(C)c3c2F)c1=O (configuration not stated)"
class_label = "class A"


Asked: Please let me know in which category the item O=C(Nc1c(F)cc(-c2cccc(OC(F)(F)F)c2)cc1F)c1ccsc1C(=O)O belongs.
Given back: class A

Asked: Please report the category associated with Cc1cc(F)c2ncn(-c3ccc(C(=O)NC4CC4)s3)c2c1 , nothing else.
Given back: class C

Asked: Form field 'band' for CN(C(=O)c1ccc2ccccc2c1)c1ccccc1C(=O)O
Given back: class C

* * *

This section presents IC50 values reported for Dihydroorotate dehydrogenase (quinone), mitochondrial (Homo sapiens) in the literature.

Solved cases (4 shown):
[[record]]
molecule_smiles = "Cc1cc(Nc2ccc(C(N)=O)cc2)n2ncnc2n1"
property = "IC50"
reported = "> 200 µM"

[[record]]
molecule_smiles = "Cc1n[nH]c(Nc2ccc(C(F)(F)F)cc2)c1-c1ccccc1"
property = "IC50"
reported = "> 50 µM"

[[record]]
molecule_smiles = "COC(=O)/C(C#N)=C1\\SCC(=O)N1c1cccc(F)c1"
property = "IC50"
reported = "> 10 µM"

[[record]]
molecule_smiles = "CCc1cc(Nc2ccc3ccccc3c2)n2ncnc2n1"
property = "IC50"
reported = "> 200 µM"


List the reported IC50 of each molecule below.
1. CC(C)(C)OC(=O)/C(C#N)=C1\SCC(=O)N1c1ccccc1F
2. Cc1nc2c(OC(F)F)cccc2n1-c1ccc(C(=O)NC2CC2)s1
3. CCOC(=O)c1sc(Nc2ccc(Oc3ccccc3)c(Cl)c2)nc1-c1ccccc1

Given back:
["> 10 µM", "> 30 µM", "> 10 µM"]

* * *

The entries below pair molecules with IC50 values for Dihydroorotate dehydrogenase (quinone), mitochondrial (Homo sapiens), as found in several publications.
One number for each entry, in nM.

[[record]]
molecule = "CCn1c(CO)nn(-c2nc(NC(C)C)c(C(=O)Nc3c(F)cccc3Cl)cc2F)c1=O"
property = "IC50"
value_unit = "nM"
reported = 3600

[[record]]
molecule = "CCc1cc(O)n2nc(SCc3ccc(Cl)cc3)nc2n1"
property = "IC50"
value_unit = "nM"
reported = 13000

[[record]]
molecule = "CCC(C)Oc1cc(NC(=O)/C(C#N)=C(/C)O)c(F)cc1-c1cccc(Cl)c1C (stereo unspecified)"
property = "IC50"
value_unit = "nM"
reported = 22.2

[[record]]
molecule = "CC/C(O)=C(\\C#N)C(=O)Nc1ccc(-c2ccc(F)cc2)c(C(=O)OC)c1"
property = "IC50"
value_unit = "nM"
reported = 110

[[record]]
molecule = "CCn1c(CO)nn(-c2nc(O[C@@H](C)C(F)(F)F)c(C(=O)Nc3c(C)cc(OC)nc3Cl)cc2F)c1=O"
property = "IC50"
value_unit = "nM"
reported = 0.8

[[record]]
molecule = "CCn1c(CO)nn(-c2nc(O[C@@H](C)C(F)(F)F)c(C(=O)Nc3c(F)cccc3Cl)cc2F)c1=O"
property = "IC50"
value_unit = "nM"
reported = 0.2

[[record]]
molecule = "Oc1ccc(/N=C/c2ccc3ccccc3c2)cc1"
property = "IC50"
value_unit = "nM"
reported = 3960

[[record]]
molecule = "COC(=O)c1ccc(Nc2nc(-c3ccc(Cl)cc3)c(C)s2)cc1"
property = "IC50"
value_unit = "nM"
reported = 1270


Answer for every listed entry: what is its IC50? The entries follow.
1. COc1cc(-c2cc(C(=O)O)c3ccccc3n2)ccc1OCC(=O)NCc1ccco1
2. COc1cc(NC(=O)/C(C#N)=C(/C)O)c(F)cc1C(=O)Nc1c(F)cccc1Cl

Given back:
[1000, 31.1]

Field: IC50. Fill in for each record below.
1. CC(C)c1cccc2c(C(=O)O)c(O)c(-c3ccc(Cl)cc3)nc12
2. O=C(O)c1ccc(-c2ccc3nc(-c4ccc(Cl)cc4)c(O)c(C(=O)O)c3c2)cc1
3. O=C(O)C1=C(C(=O)Nc2ccc(-c3ccccc3)cc2)CCC1

Given back:
283000
135000
410

* * *

pIC50: −log10 of the molar value.
Across several publications, the following pIC50 results were reported for Dihydroorotate dehydrogenase (quinone), mitochondrial (Homo sapiens).

Recorded pIC50, per entry:
[[record]]
molecule_smiles = "Cc1cc(Nc2cnc3ccccc3c2)n2ncnc2n1"
reported = "< 3.70"

[[record]]
molecule_smiles = "CC(=O)c1sc(Nc2ccc(C)c(F)c2)nc1C"
reported = "< 5.00"


# evaluate next
# pIC50 of Cc1n[nH]c(NCc2ccc(C(F)(F)F)cc2)c1C#N = < 4.30
